Target: STE20-like serine/threonine-protein kinase (Homo sapiens) (UniProt Q9H2G2)
Sequence (Q9H2G2 whole entry, looked up): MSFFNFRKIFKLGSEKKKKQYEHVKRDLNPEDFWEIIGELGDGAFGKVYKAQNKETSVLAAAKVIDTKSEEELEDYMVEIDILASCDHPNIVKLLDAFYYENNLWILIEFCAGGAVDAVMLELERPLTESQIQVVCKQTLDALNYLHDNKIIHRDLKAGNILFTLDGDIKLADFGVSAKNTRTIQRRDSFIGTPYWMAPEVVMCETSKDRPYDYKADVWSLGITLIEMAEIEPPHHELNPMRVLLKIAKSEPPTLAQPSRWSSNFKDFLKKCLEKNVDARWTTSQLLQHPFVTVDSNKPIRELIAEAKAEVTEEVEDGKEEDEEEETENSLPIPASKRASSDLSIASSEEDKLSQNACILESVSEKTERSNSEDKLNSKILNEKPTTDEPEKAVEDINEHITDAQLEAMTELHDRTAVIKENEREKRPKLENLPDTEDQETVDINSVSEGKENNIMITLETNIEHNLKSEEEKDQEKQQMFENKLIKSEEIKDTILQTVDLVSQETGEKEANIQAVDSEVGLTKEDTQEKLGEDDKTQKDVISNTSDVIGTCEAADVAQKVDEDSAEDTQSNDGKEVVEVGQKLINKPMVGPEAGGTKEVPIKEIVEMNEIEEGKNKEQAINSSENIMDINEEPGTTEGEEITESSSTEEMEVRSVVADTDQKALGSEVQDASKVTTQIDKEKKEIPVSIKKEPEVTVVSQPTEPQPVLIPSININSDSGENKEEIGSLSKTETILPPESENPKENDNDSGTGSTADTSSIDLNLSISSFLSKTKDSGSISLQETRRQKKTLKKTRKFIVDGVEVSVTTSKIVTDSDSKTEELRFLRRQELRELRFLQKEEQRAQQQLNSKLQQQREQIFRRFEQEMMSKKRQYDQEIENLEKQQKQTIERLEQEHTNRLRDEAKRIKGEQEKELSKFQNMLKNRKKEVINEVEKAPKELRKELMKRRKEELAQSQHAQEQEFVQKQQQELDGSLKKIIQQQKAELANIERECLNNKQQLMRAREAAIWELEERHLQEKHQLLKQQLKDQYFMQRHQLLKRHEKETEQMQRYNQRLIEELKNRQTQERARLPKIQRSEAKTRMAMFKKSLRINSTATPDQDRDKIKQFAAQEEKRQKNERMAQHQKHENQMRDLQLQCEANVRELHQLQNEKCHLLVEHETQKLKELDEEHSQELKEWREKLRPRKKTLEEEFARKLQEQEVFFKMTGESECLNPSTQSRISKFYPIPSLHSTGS
Experiment: SLK binders by thermal stabilization, biophysical, purified human kinase, DSF (AID 514)
Details: differential scanning fluorimetry Tm shift, at 10 µM, protein 2 µM, buffer 10 mM HEPES, pH 7.5, NaCl 150 mM, hits give high values
readoutType: Tm shift

INSERT INTO results (compound, studysystem, readouttype, measured) VALUES
  ('Cn1cc(C2=C(c3c4n(c5ccccc35)CCC(CN)C4)C(=O)NC2=O)c2ccccc21 (stereo not drawn)', 'STE20-like serine/threonine-protein kinase (Homo sapiens) (UniProt Q9H2G2)', 'Tm shift', '4.5 C');

Which Tm shift is reported for this compound? Oc1ccc(-c2nc(-c3ccc(F)cc3)c(-c3ccncc3)[nH]2)cc1
4.4 C

Which Tm shift is reported for this compound? COc1c(C=O)c(O)cc2c1C(=O)c1ccccc1C2=O
5.4 C

Which Tm shift is reported for this compound? O=C(Nc1cccc(Nc2nccc(Nc3cccc(C(F)(F)F)c3)n2)c1)C1CC1
3.7 C

Which Tm shift is reported for this compound? Cc1[nH]c(/C=C2\C(=O)Nc3ccc(S(=O)(=O)N(C)c4cccc(Cl)c4)cc32)c(C)c1C(=O)N1CCN(C)CC1
7.7 C

Which Tm shift is reported for this compound? Nc1ncnc2c1c(I)cn2[C@@H]1O[C@H](CO)C(O)C1O (stereo partly drawn)
4.2 C

Which Tm shift is reported for this compound? Oc1ccc(Nc2nccn3c(-c4cn[nH]c4)cnc23)cc1
4.7 C

Which Tm shift is reported for this compound? Nc1cc2ncnc(Nc3cccc(Br)c3)c2cc1N
5.7 C

Which Tm shift is reported for this compound? CCn1cnc2c(Nc3cccc(Cl)c3)nc(N[C@@H]3CCCC[C@@H]3N)nc21
6.4 C

Which Tm shift is reported for this compound? CC(C)C(CO)Nc1nc(Nc2cc(N)cc(Cl)c2)c2ncn(C(C)C)c2n1 (stereo not drawn)
6.2 C

Which Tm shift is reported for this compound? Nc1cccc(-c2cc3c(Oc4cccc(O)c4)ncnc3[nH]2)c1
5.7 C

Which Tm shift is reported for this compound? COc1cccc(-c2cnn3ccc(Nc4cccc(Cl)c4)nc23)c1
4.7 C

Which Tm shift is reported for this compound? CC(C)(C)n1nc(-c2ccc(Cl)cc2)c2c(N)ncnc21
3.6 C
